assay: Toxicity in Galleria mellonella assessed as survival rate at 10 mg/kg observed after 7 days
Type: organism-based
experimental parameters: in vivo, time 7 day
property name: survival at 168 h (%)
Number in %, nothing else.

Q: # get_value(readout='survival at 168 h', item= `CN[C@H](CC(C)C)C(=O)N[C@H]1C(=O)N[C@@H](CC(N)=O)C(=O)N[C@H]2C(=O)N[C@H]3C(=O)N[C@H](C(=O)N[C@H](C(=O)O)c4cc(O)cc(O)c4-c4cc3ccc4O)[C@H](O)c3ccc(c(Cl)c3)Oc3cc2cc(c3O[C@@H]2O[C@H](CO)[C@@H](O)[C@H](O)[C@H]2O[C@H]2C[C@](C)(N)[C@H](O)[C@H](C)O2)Oc2ccc(cc2Cl)[C@H]1O` )
A: 80

###

assay: Toxicity in Galleria mellonella assessed as survival rate at 1.25 to 10 mg/kg observed after 7 days
Format: organism-based
experimental parameters: in vivo, dose 1.25-10 mg/kg, time 7 day
property name: survival at 168 h

Q: Fill in the blank: the reported survival at 168 h of `CCCCCCc1c(-c2ccc(OCCCCNCCCN)cc2OCCCCNCCCN)oc2cc(OC)cc(O)c2c1=O` is ____.
A: 100%

###

System: Enterococcus faecalis
assay: Antibacterial activity against multidrug resistant Enterococcus faecalis ATCC 51299
Type: functional
property name: MIC (mg/L)
Give just the numeric value; mg/L need not be written.

Known MIC results, listed for orientation:
C=CCc1c(-c2ccc(O)cc2O)oc2cc(OC)cc(O)c2c1=O : 64
CCCCCCc1c(-c2ccc(OCCCCNCC)cc2OCCCCNCC)oc2cc(OC)cc(O)c2c1=O : 2

# next molecule below
Q: Which value of MIC has been reported for `CCCCCCc1c(-c2ccc(OCCN(C)C)cc2OCCN(C)C)oc2cc(OC)cc(O)c2c1=O` in the records?
A: 4

###

System: Staphylococcus aureus
assay: Antibacterial activity against methicillin resistant Staphylococcus aureus clinical isolate 031
Assay type: functional
Exam item: assign true to entries whose MIC is below 2 mg/L and false to entries at or above 2 mg/L. Note that a value of exactly 2 mg/L receives false.

Please review the entries below; each comes with its answer.
CCCCCCc1c(-c2ccc(OCC(=O)CN[C@H](CCCNC(=N)N)C(N)=O)cc2OCC(=O)CN[C@H](CCCNC(=N)N)C(N)=O)oc2cc(OC)cc(O)c2c1=O : false
CCCCCCc1c(-c2ccc(OCCCCNCCc3ccccc3)cc2OCCCCNCCc2ccccc2)oc2cc(OC)cc(O)c2c1=O : false
CCCCCCc1c(-c2ccc(OCCCCNC3CCCCC3)cc2OCCCCNC2CCCCC2)oc2cc(OC)cc(O)c2c1=O : false
CCCCCCc1c(-c2ccc(OCCCCNCc3ccc(F)cc3)cc2OCCCCNCc2ccc(F)cc2)oc2cc(OC)cc(O)c2c1=O : false
CCCCCCc1c(-c2ccc(O)cc2O)oc2cc(OC)cc(O)c2c1=O : false
CCCCCCc1c(-c2ccc(OCCCCNCc3ccc(Cl)cc3)cc2OCCCCNCc2ccc(Cl)cc2)oc2cc(OC)cc(O)c2c1=O : false
CCCCCCNCCCCOc1ccc(-c2oc3cc(OC)cc(O)c3c(=O)c2CCCCCC)c(OCCCCNCCCCCC)c1 : false
CCCCCCc1c(-c2ccc(OCCCCN(C)C)cc2OCCCCN(C)C)oc2cc(OC)cc(O)c2c1=O : true

Q: Please indicate whether the reported MIC of `CCCCCCc1c(-c2ccc(OCCCCNCc3ccco3)cc2OCCCCNCc2ccco2)oc2cc(OC)cc(O)c2c1=O` is strictly below 2 mg/L.
A: false

Q: Dear reviewer, please state whether `CCCCCCc1c(-c2ccc(OCCCCNCCCN)cc2OCCCCNCCCN)oc2cc(OC)cc(O)c2c1=O` has MIC strictly beneath 2 mg/L.
A: true

Q: hey, is MIC for `CCCCCCc1c(-c2ccc(OCCN(C)C)cc2OCCN(C)C)oc2cc(OC)cc(O)c2c1=O` lower than 2 mg/L or not?
A: false

###

Test system: Staphylococcus aureus
assay: Antibacterial activity against Staphylococcus aureus clinical isolate 29
Assay type: functional
property name: MIC (µg/mL)
Kindly provide the numeric value in µg/mL only, without the unit symbol.

Some molecules with known MIC results, for comparison:
CCCCCCc1c(-c2ccc(O)cc2O)oc2cc(OC)cc(O)c2c1=O : 4
CCCCCCc1c(-c2ccc(OCCCCNCC)cc2OCCCCNCC)oc2cc(OC)cc(O)c2c1=O : 2
CCCCCCNCCCCOc1ccc(-c2oc3cc(OC)cc(O)c3c(=O)c2CCCCCC)c(OCCCCNCCCCCC)c1 : 16
CCCCCCc1c(-c2ccc(OCCCCN3CCCCC3)cc2OCCCCN2CCCCC2)oc2cc(OC)cc(O)c2c1=O : 2
CCCCCCc1c(-c2ccc(OCCCCNCc3ccc(F)cc3)cc2OCCCCNCc2ccc(F)cc2)oc2cc(OC)cc(O)c2c1=O : 16

Q: Look up MIC with Staphylococcus aureus for this molecule: `CCCCCCc1c(-c2ccc(OCCCCNCCCN)cc2OCCCCNCCCN)oc2cc(OC)cc(O)c2c1=O`
A: 0.5

###

Listed here: items and their measured MIC.
Tested on: Enterococcus faecalis
assay: Antibacterial activity against multidrug resistant Enterococcus faecalis ATCC 51299
Type: functional

COc1ccc(-c2oc3cc(OC)cc(OC)c3c(=O)c2CCC=C(C)C)c(OC)c1 : > 64 µg/mL

Please look at the following molecule next.
Q: Param item = `CCc1c(-c2ccc(O)cc2O)oc2cc(O)cc(O)c2c1=O` ; retrieve measured MIC.
A: > 64 µg/mL

###

Item-by-item account of MIC
Test system: Enterococcus faecalis
assay: Antibacterial activity against multidrug resistant Enterococcus faecalis ATCC 51299
Assay type: functional

C=CCc1c(-c2ccc(OC)cc2OC)oc2cc(OC)cc(OC)c2c1=O : > 64 µg/mL
CC(C)=CCC/C(C)=C/CCCc1c(-c2ccc(O)cc2O)oc2cc(O)cc(O)c2c1=O : > 64 µg/mL
C=CCc1c(-c2ccc(O)cc2O)oc2cc(O)cc(O)c2c1=O : > 64 µg/mL
COc1ccc(-c2oc3cc(OC)cc(OC)c3c(=O)c2CCC/C=C(\C)CCC=C(C)C)c(OC)c1 : > 64 µg/mL
CCCCCCCCCCc1c(-c2ccc(OC)cc2OC)oc2cc(OC)cc(OC)c2c1=O : > 64 µg/mL

Q: Returns the measured MIC for the input molecule. Input: `CCCCCCc1c(-c2ccc(OCCCCNCc3ccc(Cl)cc3)cc2OCCCCNCc2ccc(Cl)cc2)oc2cc(OC)cc(O)c2c1=O`
A: 32 µg/mL

Q: Look at this molecule and give its reported MIC. `CCCCCCCCCCCCc1c(-c2ccc(O)cc2O)oc2cc(OC)cc(O)c2c1=O`
A: 32 µg/mL

Q: State the recorded MIC for this entry: `CCCCCCCCCCCCCCCCc1c(-c2ccc(OC)cc2OC)oc2cc(OC)cc(OC)c2c1=O`
A: > 64 µg/mL

Q: Name the recorded MIC for `O=c1cc(-c2ccc(O)cc2O)oc2cc(O)cc(O)c12` .
A: > 64 µg/mL

Q: Fill in the blank: the reported MIC of `CC(C)=CCc1c(-c2ccc(O)cc2O)oc2c3c(cc(O)c2c1=O)OC(C)(C)C=C3` is ____.
A: 5 µg/mL

Where these numbers come from: ChEMBL document CHEMBL5512659
